FYI, the data here is from patent US20170073337A1.

Biological target: Recombinant human BACE1 (Homo sapiens, UniProt P56817)
Construct: purchased R&D Systems
Sequence (P56817 46-501): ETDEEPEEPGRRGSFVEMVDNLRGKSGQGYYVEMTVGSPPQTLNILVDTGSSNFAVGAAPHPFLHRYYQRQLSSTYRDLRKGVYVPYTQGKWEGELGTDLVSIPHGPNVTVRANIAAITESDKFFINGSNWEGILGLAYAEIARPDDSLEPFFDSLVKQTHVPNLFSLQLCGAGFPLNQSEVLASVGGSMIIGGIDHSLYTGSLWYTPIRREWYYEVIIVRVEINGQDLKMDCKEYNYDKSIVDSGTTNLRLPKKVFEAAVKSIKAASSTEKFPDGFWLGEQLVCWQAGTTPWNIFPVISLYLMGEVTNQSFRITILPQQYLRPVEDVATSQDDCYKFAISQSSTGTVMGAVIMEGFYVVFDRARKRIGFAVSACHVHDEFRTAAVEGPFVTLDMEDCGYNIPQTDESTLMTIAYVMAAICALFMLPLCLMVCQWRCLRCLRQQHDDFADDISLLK
Test: Assay of BACE1 inhibitory activity: 96-well
Type: biochemical
Conditions: Assay format 96-well
OBSERVATION_TYPE: IC50 (nM)

These solved cases illustrate the format of a correct answer.
| SMILES_CODE | OBSERVATION_TYPE | VALUE_REPORTED |
| --- | --- | --- |
| C[C@@]1(c2cc(NC(=O)c3ccc(C#N)cn3)ccc2F)C[C@@](C)(C(F)(F)F)OC(N)=N1 | IC50 | 47.5 |
| COc1cnc(C(=O)Nc2ccc(F)c([C@@]3(C)N=C(N)O[C@H]4[C@@H]3OCC4(F)F)c2)cn1 | IC50 | 22 |
| C[C@H]1[C@H](C(F)(F)F)OC(N)=N[C@]1(C)c1cc(NC(=O)c2ccc(C#N)cn2)ccc1F | IC50 | 1560 |
| C[C@H]1SC(N)=N[C@](C)(c2nc(NC(=O)c3cnc(OCF)cn3)ccc2F)[C@H]1F | IC50 | 61.3 |
| C[C@]1(c2cc(NC(=O)c3ccc(C#N)cn3)ccc2F)N=C(N)OCC12CC(F)(F)C2 | IC50 | 21.8 |

(1) C[C@H]1[C@@H](C(F)(F)F)OC(N)=N[C@]1(C)c1cc(NC(=O)c2cnc(OCF)cn2)ccc1F
(2) C[C@H]1SC(N)=N[C@](C)(c2nc(NC(=O)c3ccc(C#N)cn3)ccc2F)[C@H]1F
Of the two listed items, which has the higher IC50? First: 1 Second: 2 The response must carry the label of the picked entry. 1
(1: 52.1 nM, 2: 13.3 nM)

----------
The following molecules are shown together with reported solubility kinetic at 16 h values.
Test: Solubility test
Assay type: physicochemical
Details: solubility in JP 2nd fluid B, 1% DMSO; *2: shaken for 1 hour at room temperature; read-out: JP2_μM

| SMILES_CODE | VALUE_REPORTED |
| --- | --- |
| C[C@H]1SC(N)=N[C@](C)(c2cc(NC(=O)c3cnc(OCF)cn3)ccc2F)C12CC(F)(F)C2 | >50 µM |
| CC[C@H]1SC(N)=N[C@](C)(c2cc(NC(=O)c3ccc(OCF)cn3)ccc2F)[C@H]1F | >50 µM |
| COCC(F)(F)[C@H]1OC(N)=N[C@](C)(c2cc(NC(=O)c3cnc(OC)cn3)ccc2F)[C@H]1F | >50 µM |
| CO[C@H]1[C@@H](C)SC(N)=N[C@]1(C)c1cc(NC(=O)c2cnc(OCF)cn2)ccc1F | >50 µM |
| Cc1cc(C#N)cnc1C(=O)Nc1ccc(F)c([C@@]2(C)N=C(N)O[C@H](C3(F)CC3)[C@@H]2F)c1 | >50.0 µM |
| COCC(F)(F)[C@H]1OC(N)=N[C@](C)(c2cc(NC(=O)c3ccc(C#N)cn3)ccc2F)[C@H]1F | >50 µM |
| C[C@H]1SC(N)=N[C@](C)(c2cccc(NC(=O)c3ccc(C#N)cn3)c2)[C@H]1F | >50.0 µM |
| COC[C@H]1SC(N)=N[C@](C)(c2cc(NC(=O)c3ccc(C#N)cn3)ccc2F)[C@H]1F | >50 µM |

The reported solubility kinetic at 16 h of the molecule C[C@]1(c2cc(NC(=O)c3ccc(OCF)cn3)ccc2F)N=C(N)O[C@H](C2(F)CC2)[C@@H]1F was >50.0 µM

The reported solubility kinetic at 16 h of the molecule CC[C@H]1SC(N)=N[C@](C)(c2cc(NC(=O)c3ccc(F)cn3)ccc2F)[C@H]1F was >50 µM

The reported solubility kinetic at 16 h of the molecule C[C@]1(c2cc(NC(=O)c3ccc(F)cn3)ccc2F)N=C(N)SCC12CC(F)(F)C2 was >50 µM

The reported solubility kinetic at 16 h of the molecule C[C@H]1SC(N)=N[C@](C)(c2cc(NC(=O)c3ncc(C#N)cc3Cl)ccc2F)[C@H]1F was >50 µM

The reported solubility kinetic at 16 h of the molecule COc1ccc(C(=O)Nc2ccc(F)c([C@@]3(C)N=C(N)SCC34CC(F)(F)C4)c2)nc1 was >50 µM

The reported solubility kinetic at 16 h of the molecule C[C@]1(c2cc(NC(=O)c3cnc(OCF)cn3)ccc2F)N=C(N)O[C@H](C(F)(F)C2CC2)[C@@H]1F was >50 µM

The reported solubility kinetic at 16 h of the molecule CC[C@H]1SC(N)=N[C@](C)(c2cc(NC(=O)c3ccc(C#N)cn3)ccc2F)[C@H]1F was >50 µM
